B1: FAM50A (parent)
chain: KKREKQREQMEQMKQRIAEENIMK

Variants of: B1
method: protein stability index of a GFP-peptide fusion (GPS, HEK-293T) (PSI 1-6); higher = more stable;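 also: lentivirally expressed fusions sorted by FACS into six bins by GFP to DsRed ratio, PSI derived from sequencing read proportions per bin multiplied by bin number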
test-parameters: c terminus: a fixed tail appended
metric: protein stability index
Answers are plain numbers.

Record excerpt, results attached:
{"columns": ["changes", "protein stability index"],
 "data": [
  ["E19C", 3.9],
  ["Q12Y", 4.55],
  ["R3V", 5.21]
]}

input: Given the entry `M13L` , report its measured protein stability index.
output: 5.37
